target-or-test-system: VIM-1 (Pseudomonas aeruginosa (strain ATCC 15692 / DSM 22644 / CIP 104116 / JCM 14847 / LMG 12228 / 1C / PRS 101 / PAO1))
test: biochemical
condition-info: CCF2-FA substrate, 2 hours at 25° C
metric: pIC50
Field pIC50 (float): negative decimal logarithm of the concentration in molar.

• NCCS(=O)(=O)c1ccc(-c2ccc(C(F)(F)F)c3sc(N)nc23)c(-c2nn[nH]n2)c1S(N)(=O)=O [Example 72] = 9.54
• CC(=O)Nc1nc2c(-c3ccc(S(=O)(=O)CCN)c(S(N)(=O)=O)c3-c3nn[nH]n3)cccc2s1 [Example 82] = 9.88
• Nc1nc2cccc(-c3ccc(S(=O)(=O)[C@H]4CC[C@H](N)CC4)c(S(N)(=O)=O)c3-c3nn[nH]n3)c2[nH]1 [Example 178] = 9.18
• NC(=O)N1CC(S(=O)(=O)c2ccc(-c3cccc4[nH]c(N)nc34)c(-c3nn[nH]n3)c2S(N)(=O)=O)C1 [Example 56] = 9.46
• NS(=O)(=O)c1c(S(=O)(=O)C2CNC2)ccc(-c2cccc(C3CCC(=O)N3)c2)c1-c1nnn[nH]1.O=C(O)C(F)(F)F (centres unmarked) [Example 125, 2,2,2-trifluoroacetate] = 8.60
• NCCS(=O)(=O)c1ccc(-c2cccc3nc(N)[nH]c23)c(-c2nn[nH]n2)c1S(N)(=O)=O [Example 70] = 9.43
• NCCS(=O)(=O)c1ccc(-c2cccc3sc(NC(N)=O)nc23)c(-c2nn[nH]n2)c1S(N)(=O)=O [Example 85] = 10.07
• NS(=O)(=O)c1c(S(=O)(=O)C2CNC2)ccc(-c2cccn3ccnc23)c1-c1nnn[nH]1 [Example 58] = 9.47

Just so you know, measured pIC50 for NC[C@H](O)CS(=O)(=O)c1ccc(-c2cccc3sc(N)nc23)c(-c2nn[nH]n2)c1S(N)(=O)=O [Example 281] came out at 9.87

Just so you know, measured pIC50 for NS(=O)(=O)c1c(S(=O)(=O)C2CNC2)ccc(-c2cnc3cc[nH]c3c2)c1-c1nn[nH]n1 [Example 16] came out at 9.19

Just so you know, measured pIC50 for Cc1ccc(-c2ccc(S(=O)(=O)C3CNC3)c(S(N)(=O)=O)c2-c2nn[nH]n2)c2nc(N)sc12 [Example 32] came out at 9.97
